Below, each entry is listed with its recorded MIC.
# System: Enterobacterales expressing class A carbapenemases (KPC)
# test: organism not typed
# Type: cell-based, K. pneumoniae, E. coli, E. cloacae, Klebsiella oxytoca
# test-parameters: E. cloacae OIMGH49 (p99 AmpC, ACT-2, KPC-2, TEM-1)

[
  {
    "smiles-text": "CC1(C)S[C@@H]2[C@H](NC(=O)[C@H](N)c3ccc(O)cc3)C(=O)N2[C@H]1C(=O)O",
    "MIC": "≥ 64 µg/mL"
  },
  {
    "smiles-text": "Nc1nc(/C(=C/CC(=O)O)C(=O)N[C@@H]2C(=O)N3C(C(=O)O)=CCS[C@H]23)cs1",
    "MIC": "≥ 64 µg/mL"
  },
  {
    "smiles-text": "C[C@@H](O)[C@H]1C(=O)N2C(C(=O)O)=C(SC3CN(C4=NCCS4)C3)[C@H](C)[C@H]12",
    "MIC": "32 µg/mL"
  },
  {
    "smiles-text": "C[C@@H](O)[C@H]1C(=O)N2C(C(=O)O)=C(S[C@H]3CC[S@@+]([O-])C3)S[C@H]12",
    "MIC": "≥ 64 µg/mL"
  }
]
